tested on: S180 sarcoma; details: S180 sarcoma; Dosage 100 (mg/ml), ip × 10qd; first time
property_label: Body weight of the animals, beginning, First time (g)
Answers are plain numbers, in g.

Below, 2 compounds whose answers are already recorded.
compound	experimental_target	numeric_value
c1ccc(Cn2c3ccccc3c3ccncc32)cc1 [Compound 84, 9-Benzyl-β-carboline]	S180 sarcoma	19.7
COC(=O)c1cc2c([nH]c3ccccc32)c(-c2ccccc2)n1 [Compound 14]	S180 sarcoma	19.9

Each compound below has a recorded value; state its Body weight of the animals, beginning, First time.
1. OCc1cc2c3ccccc3n(Cc3ccccc3)c2cn1 [Compound 42, 9-benzyl-3-hydroxymethyl-β-carboline]
2. O=C(O)c1cc2c(cn1)[nH]c1ccccc12 [Compound 17, β-carboline-3-carboxylic acid]
3. CCOC(=O)c1cc2c(cn1)[nH]c1ccccc12 [Compound 10, ethyl β-carboline-3-carboxylate]
4. O=C(O)c1cc2c3ccccc3n(CCCc3ccccc3)c2cn1 [Compound 48]

Output:
1: 19.2; 2: 19.3; 3: 20.1; 4: 19.4

Each compound below has a recorded value; state its Body weight of the animals, beginning, First time.
1. COC(=O)c1cc2c([nH]c3ccccc32)c(-c2ccc(OC)cc2)n1 [Compound 15]
2. CCCCn1c2ccccc2c2cc(C(=O)O)ncc21 [Compound 36, 9-butyl-β-carboline-3-carboxylic acid]

Output:
1: 19.9; 2: 19.0

###

Can you tell me Death rate for the items I'm about to list?
tested on: Kunming mice; conditions: male mice, 300 mg/kg, single i.p.
Answers are plain numbers.

compound	Death rate
CCOC(=O)c1cc2c3ccccc3n(Cc3ccccc3)c2cn1 [Compound 33, ethyl 9-benzyl-β-carboline-3-carboxylate]	80
OCc1cc2c3ccccc3n(Cc3ccccc3)c2cn1 [Compound 42, 9-benzyl-3-hydroxymethyl-β-carboline]	80
CCOC(=O)c1cc2c([nH]c3ccccc32)c(C)n1 [Compound 11, ethyl 1-methyl-β-carboline-3-carboxylate]	100
c1ccc(Cn2c3ccccc3c3ccncc32)cc1	20
O=C(O)c1cc2c3ccccc3n(Cc3ccccc3)c2cn1	100
CCOC(=O)Nc1cc2c3ccccc3n(Cc3ccccc3)c2cn1	40

Each compound below has a recorded value; state its Death rate.
1. COC(=O)c1cc2c([nH]c3ccccc32)c(-c2ccc(O)cc2)n1
2. CCCCn1c2ccccc2c2cc(C(=O)O)ncc21
3. O=C(O)c1cc2c3ccccc3n(CCCc3ccccc3)c2cn1

Output:
[20, 20, 100]

###

test: in vivo; details: both, Kunming, mouse, ip
Can you tell me LD50 at 2 weeks for the items I'm about to list?
Numbers only, in mg/kg.

Below, 3 compounds whose answers are already recorded.
compound	LD50 at 2 weeks / mg/kg
CCOC(=O)c1cc2c([nH]c3ccccc32)c(C)n1 [Compound 11, ethyl 1-methyl-β-carboline-3-carboxylate]	183
O=C(O)c1cc2c3ccccc3n(Cc3ccccc3)c2cn1	163
OCc1cc2c3ccccc3n(Cc3ccccc3)c2cn1 [Compound 42, 9-benzyl-3-hydroxymethyl-β-carboline]	247

Switching to the query record.
Input: Give the reported value of LD50 at 2 weeks for this record: CCOC(=O)c1cc2c3ccccc3n(Cc3ccccc3)c2cn1 [Compound 33, ethyl 9-benzyl-β-carboline-3-carboxylate]
Output: 240

###

Can you tell me IC50 for the items I'm about to list?
tested on: BGC-823; assay: In vitro cytotoxicity, IC50 by MTT method, BGC-823; format: cell-based; details: Homo sapiens, BGC-823; BGC823 cell strain; read-out: IC50 BGC823

Below, 4 molecules whose answers are already recorded.
Cn1c2ccccc2c2ccncc21 200 µM
CCCCn1c2ccccc2c2ccncc21 100 µM
CCOC(=O)c1cc2c3ccccc3n(CCCc3ccccc3)c2c(C)n1 40 µM
CCCc1nc(C(=O)OCC)cc2c3ccccc3n(C)c12 110 µM

Switching to the query record.
Input: Give the reported value of IC50 for this record: `Cn1c2ccccc2c2cc(C(=O)O)nc(-c3ccccc3)c21`
Output: 210 µM

###

assay: in vivo; conditions: both, mouse, ip
property_label: MTD at 2 weeks (mg/kg)
Numbers only, in mg/kg.

Input: Give the reported value of MTD at 2 weeks for this record: `CCOC(=O)Nc1cc2c3ccccc3n(Cc3ccccc3)c2cn1`
Output: 240

###

tested on: Hela; experiment: In vitro cytotoxicity, IC50 by MTT method, Hela; type: cell-based; details: Hela cell strain; read-out: IC50 Hela
property_label: IC50 (µM)
Answers are plain numbers, in µM.

Below, 2 molecules whose answers are already recorded.
molecule	numeric_value
CCOC(=O)c1cc2c3ccccc3n(Cc3ccccc3)c2c[n+]1Cc1ccccc1.[O-][I+2]([O-])[O-] [Compound 85]	30
O=C(O)c1cc2c3ccccc3n(Cc3c(F)c(F)c(F)c(F)c3F)c2cn1 [Compound 49]	40

Each molecule below has a recorded value; state its IC50.
1. NNC(=O)c1cc2c3ccccc3n(Cc3ccccc3)c2cn1 [Compound 52, 3-carbohydrazide-9-benzyl-β-carboline]
2. CCOC(=O)c1cc2c3ccccc3n(Cc3c(F)c(F)c(F)c(F)c3F)c2cn1 [Compound 46]

Output:
1. 250
2. 980

###

Tested on: HepG2
Assay: In vitro cytotoxicity, IC50 by MTT method, HepG2
Format: cell-based, human
Conditions: Homo sapiens; HepG2 cell strain; read-out: IC50 HepG2
Protocol: Culture medium powder RPMI1640 was dissolved in a proper amount of tri-distilled water according to the instruction of the product. […] It was the basic culture solution. […] The cells, at a concentration of 10^5/ml, were inoculated at a 96-pore culture plate. […] After that, OD value was identified with a Microplate Reader at the wavelength of 490 nm. The survival rate of the cells at various concentrations was calculated according to the following formula: […]
property_label: pIC50
One number for each entry, as −log10 of the molar value.

molecule	pIC50
CC(=O)COc1cc2c3ccccc3n(Cc3ccccc3)c2cn1 [Compound 43, 9-benzyl-3-acetylmethoxy-β-carboline]	3.52
CCn1c2ccccc2c2cc(C(=O)OC)ncc21 [Compound 27, methyl 9-ethyl-β-carboline-3-carboxylate]	3.80
Cc1nc(C(=O)O)cc2c3ccccc3n(CCCc3ccccc3)c12 [Compound 65]	3.85

Each molecule below has a recorded value; state its pIC50.
1. CCCCn1c2ccccc2c2cc(C(=O)O)ncc21 [Compound 36, 9-butyl-β-carboline-3-carboxylic acid]
2. CCCCOC(=O)c1cc2c3ccccc3n(CCCC)c2cn1 [Compound 40, butyl 9-butyl-β-carboline-3-carboxylate]
3. OCc1cc2c3ccccc3n(Cc3ccccc3)c2cn1 [Compound 42, 9-benzyl-3-hydroxymethyl-β-carboline]
4. CCn1c2ccccc2c2ccncc21 [Compound 82, 9-ethyl-β-carboline]

Output:
3.77
2.97
4.05
3.77

###

Can you tell me IC50 for the items I'm about to list?
system: HepG2; test: In vitro cytotoxicity, IC50 by MTT method, HepG2; assay type: cell-based, human; conditions: HepG2, MTT; read-out: IC50
Numbers only, in µM.

molecule	IC50 (µM)
NNC(=O)c1cc2c(cn1)[nH]c1ccccc12 [Compound 20, β-carboline-3-carbohydrazine]	360

Switching to the query record.
Input: Give the reported value of IC50 for this record: `COc1ccc2c3ccnc(C)c3n(Cc3c(F)c(F)c(F)c(F)c3F)c2c1`
Output: 50

###

test system: Bel-7402; test: In vitro cytotoxicity, IC50 by MTT method, Bel-7402; assay type: cell-based; details: Homo sapiens, Bel-7402; Bel7402 cell strain; read-out: IC50 Bel7402
property_label: pIC50
Answers are plain numbers, as −log10 of the molar value.

molecule	experimental_target	pIC50
CCCCn1c2ccccc2c2cc(C(=O)OC)ncc21	Bel-7402	3.37
CCOC(=O)Nc1cc2c3ccccc3n(CC)c2cn1	Bel-7402	2.77
CCCc1nc(C(=O)OCC)cc2c3ccccc3n(CC)c12	Bel-7402	3.48
CCn1c2ccccc2c2cc(C(=O)OC)ncc21 [Compound 27, methyl 9-ethyl-β-carboline-3-carboxylate]	Bel-7402	3.28
CCCc1nc(C(=O)O)cc2c3ccccc3n(Cc3ccccc3)c12	Bel-7402	3.74

Each molecule below has a recorded value; state its pIC50.
1. CCOC(=O)Nc1cc2c3ccccc3n(Cc3ccccc3)c2cn1
2. CC(=O)COc1cc2c3ccccc3n(Cc3ccccc3)c2cn1
3. O=C(O)c1cc2c3ccccc3n(CCCc3ccccc3)c2cn1
4. CCCCn1c2ccccc2c2ccncc21

Output:
2.61
3.89
4.30
3.80

Each molecule below has a recorded value; state its pIC50.
1. CCCCOC(=O)c1cc2c3ccccc3n(CC)c2cn1 [Compound 39, butyl 9-ethyl-β-carboline-3-carboxylate]
2. CCCc1nc(C(=O)O)cc2c3ccccc3n(CC)c12
3. CCOC(=O)c1cc2c3ccccc3n(C)c2c(C)n1
4. O=C(O)c1cc2c3ccccc3n(Cc3ccccc3)c2cn1

Output:
[4.15, 3.24, 3.31, 3.96]
